growth inhibition by entry:
# Assay Overview: NCI Yeast Anticancer Drug Screen. Data for the mgt1 strain (AID 153)
# Details: S. cerevisiae mgt1 mutant growth inhibition; at 11.0 µM; stronger effect = higher value
This is part of a sample that, as a whole, favours compounds with a hit. Of some 79,000 tested, about 15% had one in any assay.

Compound	Result Units	growth inhibition
CCC1(O)C(=O)OCc2c1cc1n(c2=O)Cc2c-1nc1ccccc1c2OC (stereo not drawn)	%	4
CCN(CCCl)CCCCNc1c2ccccc2nc2ccc(OC)cc12	%	42
O=C(NNC(=O)OCC(Cl)(Cl)Cl)OCC(Cl)(Cl)Cl	%	48
O=C(O)CCCc1cc(I)c(N(CCCl)CCCl)c(I)c1	%	-42
CC1CCC2(NC1)OC1CC3C4CCC5CC(OC6OC(CO)C(OC7OC(CO)C(O)C(OC8OCC(O)C(O)C8O)C7OC7OC(CO)C(O)C(O)C7O)C(O)C6O)CCC5(C)C4CCC3(C)C1C2C (stereo not drawn)	%	-11
Cn1cc(NC(=O)c2cc(NC(=O)CN=C(N)N)cn2C)cc1C(=O)NCCC(=N)N	%	5
CSC(=Nc1ccccc1)N(c1ccccc1)c1nc(=[N+](C)C)ss1	%	84
COC1CC(CC2CCC(C)C(C(C)C(=O)O)O2)OC2(OC(C)(C3CCC(C)(C4OC(C5OC(O)(CO)C(C)CC5C)CC4C)O3)CC2C)C1C (stereo not drawn)	%	27
Cc1nc2ccccc2cc1C[N+]12CN3CN(CN(C3)C1)C2	%	4
CCC1(O)C(=O)OCc2c1cc1n(c2=O)Cc2cc3ccccc3nc2-1 (stereo not drawn)	%	-4
O=C1C=CC(=O)C1(Br)Br	%	25
C[C@]12CCc3nonc3C1CC[C@@H]1C2CC[C@]2(C)C(=O)CCC12 (stereo partly drawn)	%	19
CC[C@@]1(O)C[C@H](OC2CC(N(C)C)C(O)C(C)O2)c2c(O)c3c(c(O)c2[C@H]1OC1CC(N(C)C)C(O)C(C)O1)C(=O)c1cccc(O)c1C3=O (stereo partly drawn)	%	13
CC(=O)O/C(=C1\C[C@H]2[C@@H]3CC=C4C[C@@H](OC(C)=O)CC[C@]4(C)[C@H]3CC[C@]2(C)C1=O)C(F)(F)F	%	1
Oc1c(Br)cc(Br)cc1Br	%	24
c1c(N2CCOCC2)ssc1=[N+]1CCOCC1	%	-1
O=C1C2CC(Cl)C(SSC3CC4C(=O)N(SC(Cl)(Cl)C(Cl)Cl)C(=O)C4CC3Cl)CC2C(=O)N1SC(Cl)(Cl)C(Cl)Cl (stereo not drawn)	%	99
Nc1ccc(Cl)cc1C(=O)c1ccccc1	%	-43
CCc1cccc(C(C)C)c1NC1=C([n+]2ccc(C)cc2)C(=O)c2ccccc2C1=O	%	-1
Nc1nnc(N)n1-n1c(N)nnc1N	%	-4
CC(C)(C)c1cc([N+](=O)[O-])cc([N+](=O)[O-])c1O	%	21
O=Cc1ccc(C(F)(F)F)cc1.[C-]#[O+].[C-]#[O+].[C-]#[O+].[Cr]	%	20
CN(C)CCC(C(=O)C(Br)Br)(c1ccccc1)c1ccccc1	%	96
[N-]=[N+]=C1C(Cl)=C(Cl)C(Cl)=C1Cl	%	46
O=C(O)C1C2c3ccccc3C(c3ccccc32)C1C(=O)O (stereo not drawn)	%	-2
Br[Se]c1ccccn1	%	79
O=C(O)C1C2C=CC(C2)C1c1ccccc1 (stereo not drawn)	%	-4
Cn1cnc(N)c1C(=N)[Se]	%	4
O=[N+]([O-])c1oc2ccc3ccccc3c2c1CCO	%	85
C[N+]1(CCCl)CC[N+](C)(CCCl)CC1 (stereo not drawn)	%	3
O=C(c1ccccc1)C1C(c2ccccc2[N+](=O)[O-])N1C1CCCCC1 (stereo not drawn)	%	10
CCS(=O)(=O)[O][Sn]([CH2]C)([CH2]C)[O]S(=O)(=O)CC	%	1
O=c1oc2ccccc2c(O)c1C(c1ccc2ccccc2c1)c1c(O)c2ccccc2oc1=O	%	33
N#Cc1cc(N(CCCl)CCCl)c([N+](=O)[O-])cc1[N+](=O)[O-]	%	-4
NCCc1ccc(OCc2ccccc2)c(OCc2ccccc2)c1	%	56
c1ccc2cc3n[se]nc3cc2c1	%	5
Nc1nc(-c2ccccc2)c(-c2ccccc2)[se]1	%	0
c1ccc(N=c2nc(N3CCOCC3)ss2)cc1	%	71
CCOP(=O)(CC(C)P(=O)(OCC)OCC)OCC.C[CH2][Sn]([Cl])([Cl])[CH2]C (stereo not drawn)	%	4
COC(=O)C1C2c3ccccc3C(c3ccccc32)C1C(=O)OC (stereo not drawn)	%	-2
O=[N+]([O-])c1ccc(N2CCC(CCCC3CCN(c4ccc([N+](=O)[O-])cc4[N+](=O)[O-])CC3)CC2)c([N+](=O)[O-])c1	%	0
CC12CCC(C1)C(C)(C)C2OC(=O)c1ccccc1N (stereo not drawn)	%	-5
C[C@@]12CCC(=O)C=C1CC[C@H]1C2=CC[C@]2(C)C1CC[C@@]2(C)O (stereo partly drawn)	%	38

###

# Assay Overview: NCI Yeast Anticancer Drug Screen. Data for the sgs1 mgt1 strain (AID 161);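 further: 0% = growth of cultures given vehicle only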
# Details: S. cerevisiae sgs1 mgt1 strain, at 5.0 µM (retest, dose inferred, filed as 0.5), stronger effect = higher value
About 79,000 compounds went through this panel and 15% of them were active in at least one assay; those are over-represented in the sample as a whole.
Endpoint Name: growth inhibition (%)

Molecule	Endpoint Name	Val
Cn1c(=O)c2[nH]cnc2n(C)c1=O.[CH2-]C(Cc1cccc2cc(C(=O)O)c(=O)oc12)OC.[Hg+2].[OH-] (configuration not stated)	growth inhibition	-6
Cc1nc2ccccc2cc1C[N+]12CN3CN(CN(C3)C1)C2	growth inhibition	-6
Sc1ccc(Cl)cc1	growth inhibition	5
O=c1[nH]cnc2[nH]cc(CN3CCCCC3)c12	growth inhibition	-1
CCCC[CH2][Sn]([CH2]CCCC)[CH2]CCCC.CCCC[CH2][Sn]([CH2]CCCC)[CH2]CCCC	growth inhibition	67
CNC(=O)OCC1C2=C(C(=O)C(C)=C(N)C2=O)N2CC3C(N3C)C12OC (configuration not stated)	growth inhibition	30
COC1=[C]([Hg][Br])C(OC)OC1OC (configuration not stated)	growth inhibition	99
CC1CC(C)CC(C)C(O)/C(C#N)=C/C=C/CC(C2CCCC2C(=O)O)OC(=O)CC(O)C(C)C1 (configuration not stated)	growth inhibition	15
CCOP(=O)(OCC)Oc1cc(C)c(SC#N)c(C)c1	growth inhibition	10
O=C(O)CCCC1CCCCC1	growth inhibition	4
C/C(=N\NS(=O)(=O)c1ccc(C)cc1)C(CN1CCOCC1)C(c1ccccc1)c1c(O)c2ccccc2oc1=O (configuration not stated)	growth inhibition	15
N#CC(C#N)=Cc1ccc([N+](=O)[O-])s1	growth inhibition	-42
COc1ccc2c3c1OC1C(=O)C4CC5(c6c(O)ccc(O)c64)C(C2)N(C)CCC315 (configuration not stated)	growth inhibition	-6
CN(C)CC1CCCCC1=O (configuration not stated)	growth inhibition	-67
Cc1cc(N(CCCl)CCCl)ccc1CN1CCCN(Cc2ccc(N(CCCl)CCCl)cc2C)C1c1cccc(F)c1	growth inhibition	1
COC(=O)C1=C(C(=O)OC)C2OC1c1cc3ccccc3cc12	growth inhibition	92
CN(C)C(=S)[S][Sb]([c]1ccccc1)[c]1ccccc1	growth inhibition	93
CC(C)C1(NC(=O)C2C=C3c4cccc5[nH]cc(c45)CC3N(C)C2)OC2(O)C3CCCN3C(=O)C(Cc3ccccc3)N2C1=O (configuration not stated) (tested in a mixture with another compound)	growth inhibition	4
Cc1ccc2c(c1)C1(C)c3cc(C)ccc3SP1S2 (configuration not stated)	growth inhibition	6
CCc1cc2c(cc1O)C(C)(C)CCC2(C)C	growth inhibition	-3
COC1=C(C)C(=O)C2=C(C1=O)C(CO)N1C(C#N)C3CC4C(C1C2N1CCOC41)N3C (configuration not stated)	growth inhibition	20
CC(=O)OC1C2(CC3N4C(=O)C5(CO)SSC4(CC31O)C(=O)N5C)OC(C)C(C)(C)C2=O (configuration not stated)	growth inhibition	68

###

# Assay Overview: NCI Yeast Anticancer Drug Screen. Data for the mlh1 rad18 strain (AID 175)
# Details: S. cerevisiae mlh1 rad18 strain growth inhibition; at 50.0 µM (retest, dose inferred, filed as 5.0)
The panel holds about 79,000 compounds, 15% with a hit somewhere; the sample as a whole holds those more often. Activity calls are given as the source filed them. Cut-off read from the data, not from the text of the source: active = growth inhibition above about 70%; inactive = the rest.
Outcomes: YES = active, NO = inactive

Compound	Qualitative Label
C[N+](C)=C1C=CC(=C2C=CSC=C2)C=C1	NO
C/C(=N\N=C(\[Se])N1CCN(c2ccccn2)CC1)c1ccccn1	YES
O=[N+]([O-])c1ccc(C=Cc2ccccc2)cc1.[C-]#[O+].[C-]#[O+].[C-]#[O+].[Cr]	YES
Cc1cc(O)c2c(c1)C(=O)C13C(=C2O)C(=O)C2C(O)C1C1C(O)C3C(=O)C3=C(O)c4c(O)cc(C)cc4C(=O)C321 (configuration not stated)	NO
Ic1cccc2c1[se]c1ccccc12	YES
[Ni+2].[SH2+]C([SH2+])=Nc1ccccc1.[SH2+]C([SH2+])=Nc1ccccc1.c1ccc(C[P+](c2ccccc2)(c2ccccc2)c2ccccc2)cc1	YES
C1CC[N-]CC1.C1CC[N-]CC1.N#CO.[Ag]	YES
CC[N-]c1nnnn1CC.[Au+].c1ccc([PH+](c2ccccc2)c2ccccc2)cc1	YES
CN1CCN(c2ccc([N+](=O)[O-])c3no[n+]([O-])c23)CC1	YES
FC(F)(F)c1nnn[n-]1.[Au+].c1ccc([PH+](c2ccccc2)c2ccccc2)cc1	YES
CCCCCCCC1(c2ccc(N)cc2)CCC(=O)NC1=O (configuration not stated)	NO
CCNCC(=O)O[C@]1(CC)C(=O)OCc2c1cc1n(c2=O)Cc2cc3ccccc3nc2-1	NO
CSc1nncc(=O)[nH]1.[Hg]	YES
O=C(CBr)Nc1ccccc1Cl	YES
CCC1(C2=CCCCC2)C(=O)NC(=S)NC1=O	YES
O=C(CBr)OCc1ccccc1	YES
CCCCCCC1CC2(Cl)C(Cl)=C(Cl)C1(Cl)C2(Cl)Cl (configuration not stated)	YES
CC(=O)Nc1ccccc1[As](O[As](c1ccccc1)c1ccccc1NC(C)=O)c1ccccc1 (configuration not stated)	YES
CCOP(=O)(OCC)/C(C#N)=C/c1ccccc1Cl	YES
Cc1ccc(C(=O)CCl)c(C)c1	YES
COC(=O)C1=C(C(=O)OC)C2OC1c1cc3ccccc3cc12	YES
CC(O)([CH2][Hg][Cl])C(O)[CH2][Hg][Cl] (configuration not stated)	YES
